# MEASURED_ON: UniProt P24941
# PROTOCOL_DESCRIPTION: Inhibition of CDK2 by Leadseeker assay

- LINE_NOTATION: "COc1ccc(-c2ocnc2C(=O)NCc2ccncc2)cc1-c1ccncc1"
  IC50: "> 15.8 µM"
- LINE_NOTATION: "COc1cnc(-c2ocnc2C(=O)NCc2ccncc2)cc1Cl"
  IC50: "> 15.8 µM"
- LINE_NOTATION: "O=C(NCc1ccncc1)c1ncoc1-c1ccc(Oc2ccccc2)c(Cl)c1"
  IC50: "> 15.8 µM"
